Could you please report measured fraction ligated for the items listed next?
B1: F1*; the commonest letter at each place (parent)
chain: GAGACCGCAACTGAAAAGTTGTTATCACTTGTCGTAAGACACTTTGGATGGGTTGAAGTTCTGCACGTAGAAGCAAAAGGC

# Variants of: B1
# method.description: fraction ligated after 30 min (ligated reads / total reads); higher = more ligase activity
# condition.details: with F1*sub RNA substrate (template-directed ligation), 42 °C
Answer field: number only, no words.

Reported fraction ligated for GAGACCGCAACTGAAAAGTTGTCATCACTTATCGTAAGACACTTTGGATGGGTTGAAGTTCTGCACGTAGAAGCAAAAGGC [T23C G31A] : what is it?
0.619

Consider next the variant GAGACCGCAACTGAAAAGTTGTTATCACTTGGCGTAAGACACTTTGGATGGGTTGGAGTTCTGCACGTAGAAGCAAAAGGC [T32G A56G] in the same way.
0.799

Proceed to GAGACCGCAACTGAAAAGTTGTTATCACTTGTCGTAAGAGACTTTCGATGGGTTGAAGTTCTGCACGTAGAAGCAAAAGGC [C40G G46C]
0.801

How about GAGACCGCAACTGAAAAGTTGTTTTCACTTGTCGTAAGTCACTTTGGATGGGTTGAAGTTCTGCACGTAGAAGCAAAAGGC [A24T A39T] ?
0.619

Now try GAGACCGCAACTGAAAAGTTGTTATCACTTGTCGTAAGACACTATAGATGGGTTGAAGTTCTGCACGTAGAAGCAAAAGGC [T44A G46A] .
0.816

Okay, and GAGACCGCAACTGAAAAGTTGTTATCACTTGTTGTCAGACACTTTGGATGGGTTGAAGTTCTGCACGTAGAAGCAAAAGGC [C33T A36C] ?
0.843

Cool, now GAGACCGCAACTGAAAAGTTGTTATCACTTGGCGTATGACACTTTGGATGGGTTGAAGTTCTGCACGTAGAAGCAAAAGGC [T32G A37T]
0.825

Same thing, different variant: GAGACCGCAACTGAAAAGTTGTTATCACTTGTCGTAGGACACTTTGGATGGGTTGATGTTCTGCACGTAGAAGCAAAAGGC [A37G A57T]
0.823

Do the same for GAGACCGCAACTGAAAAGTTGTCATCACTTGGCGTAAGACACTTTGGATGGGTTGAAGTTCTGCACGTAGAAGCAAAAGGC [T23C T32G] please
0.827

Then this variant: GAGACCGCAACTGAAAAGTTGTTATCACTTCCCGTAAGACACTTTGGATGGGTTGAAGTTCTGCACGTAGAAGCAAAAGGC [G31C T32C]
0.796

Then this variant: GAGACCGCAACTGAAAAGTTGTTATCACCTGTCGTAAGCCACTTTGGATGGGTTGAAGTTCTGCACGTAGAAGCAAAAGGC [T29C A39C]
0.819
